Recorded values, source PubChem BioAssay.

- ASSAY REMARKS: RPL19A-GFP modulators, yeast TOR pathway, confirmation, cell-based, S. cerevisiae, flow cytometry, cherry picks, mother/daughter gates (AID 2270)
- RECORDED CONDITIONS: S. cerevisiae RPL19A-GFP strain, 3 h, measured here: daughter cell gate, at 10 µM, stronger effect = lower value, 100 = same GFP as DMSO wells
MEASURED ATTRIBUTE: GFP response vs DMSO (%)
// units = %; emit number, no label

The following compounds have reported results that may help.
{"columns": ["COMPOUND", "TEST VALUE"],
 "data": [
  ["C/C(=N\\NC(=O)c1ccc(Cl)cc1)c1cccc(NC(=O)C(C)C)c1", 95.1],
  ["COc1cccc2c1Oc1ncccc1N(C(=O)CCC(=O)NCc1ccccc1)C2", 98.1],
  ["CCN(Cc1ccccc1)S(=O)(=O)c1ccc(C(=O)Nc2nnc(-c3ccccc3OC)o2)cc1", 98.6],
  ["CC[n+]1c(/C=C/c2ccc(N(C)C)cc2)ccc2ccccc21", 96.6],
  ["Cc1ccc(NN2C(=O)C=C(c3ccc(Cl)cc3)C2=O)cc1", 87.1]
]}

Req: Output measured GFP response vs DMSO for this item: O=C1Nc2ccc(Br)cc2/C1=C/C(=O)c1ccc2c(c1)OCO2
Resp: 99.4

Req: Identify measured GFP response vs DMSO associated with CCOC(=O)c1sc(Nc2nc3c(OC)cccc3s2)nc1C
Resp: 77.4

Req: Return value of GFP response vs DMSO for input COc1cc(NC(=O)c2cccc([N+](=O)[O-])c2)ccc1NC(=O)c1cc2ccccc2o1 , no commentary.
Resp: 99.9

Req: Specify GFP response vs DMSO for O=C1c2ccsc2SCCN1Cc1cccc(Cl)c1 and stop.
Resp: 92.6
